- Target or system: Hsp90-NTD (Homo sapiens)
Reported endpoint: Kd (µM)
Form entry: value (µM) — number only.

Q. Which value of Kd has been reported for CCc1oc2ccccc2c1C(=O)c1cc(Br)c(O)c(Br)c1 in the records?
A. 15.1
